# Test system: johnsongrass (Sorghum halepense)
# assayProtocol: Test C pre/postemergence
# Assay type: in vivo
# conditionContext: Sorghum halepense, pre-emergence, Preemergence, 62 g ai/ha; scale 0 to 100, 0 no effect, 100 complete control; read-out: Plant response rating, Johnsongrass
List of pest or weed control at 62 g/ha values.
Express the result in % but write the number alone.

>  <molSmiles>
Nc1nc(C2CC2)nc(C(=O)OCc2ccccc2)c1Br

>  <pest or weed control at 62 g/ha, %>
80

$$$$

Sure, the documented pest or weed control at 62 g/ha for `Nc1nc(C2CC2)nc(C(=O)O)c1Br` is 0

Sure, the documented pest or weed control at 62 g/ha for `COC(=O)c1nc(C2CC2)nc(N)c1F` is 0

Sure, the documented pest or weed control at 62 g/ha for `Nc1nc(C2CC2)nc(C=O)c1Br` is 0

Sure, the documented pest or weed control at 62 g/ha for `COC(=O)c1nc(C2CC2)nc(N)c1Br` is 0
